biological target: human siglec12 (human) (UniProt Q96PQ1); assay: FACS U937
metric: Flow Fluor MFI
# print the numeric value only

For the binder S0023 (antibody, V domains shown) VH: EVQLLESGGGLVQPGGSLRLSCAASGFTFSTFAMSWVRQAPGKGLEWVSTISGGGDSTYYADSVKGRFTISRDNSKNMMSLQMNSLRAVDTAVYYCVKGGGDEYFYYGMDVWGQGTTVTVSS VL: DIQMTQSPSSLSASVGDRVTITCRASQGIRNDLGWYQQKPGKAPKRLIYSASSLQSGVPSRFSGSGSGTEFTLTISSLQPEDFATYYCLQHNSYPYTFGQGTPLDIKR , what Flow Fluor MFI is on record?
93
